protocol description: Retention time of the compound by gas chromatography
Assay type: physicochemical
measured quantity: Retention_time (min)

The cases that follow already have their Retention_time on record.
Entry C=CCOc1ccc(OC)cc1OCC(O)CNC(C)C.O=C(O)C(F)(F)F (stereo not given) has what Retention_time? 11.8

Entry C=CCOc1c(OC)cccc1OCC(O)CNC(C)C.O=C(O)C(F)(F)F (stereo not given) has what Retention_time? 9.6

Entry C=CCOc1cccc(OC)c1OCC(O)CNC(C)C.O=C(O)C(F)(F)F (stereo not given) has what Retention_time? 10.5

I: C=CCOc1cc(OC)ccc1OCC(O)CNC(C)C.O=C(O)C(F)(F)F (stereo not given)
II: C=CCOc1ccccc1OCC(O)CNC(C)C.O=C(O)C(F)(F)F (stereo not given)
// which entry reports the smaller Retention_time, I or II ? Return value: the label identifying the chosen record. II
(II: 5.7 min, I: 13.1 min)
